Listing of IC50 toward BTK (Homo sapiens, UniProt Q06187), each taken from a published source.
OBSERVED_PROPERTY: IC50

>>> recorded_value("CN(C(=O)/C=C/CN(C)[C@H]1CCOC1)c1cccc(-n2c(=O)n(-c3ccc(Oc4cccc(F)c4)cc3)c3c(N)ncnc32)c1")
"< 0.1 µM"
>>> recorded_value("Cn1cc(-c2cn3nccc3c(-c3ccc(CNC(=O)c4cnn(C(C)(C)C)c4)c(C(F)F)c3)n2)cn1")
"< 0.001 µM"
>>> recorded_value("Cn1cc(-c2cc3nccn3c(-c3ccc(CNC(=O)c4nnn(C(C)(C)C)n4)cc3)n2)cn1")
"< 0.001 µM"
>>> recorded_value("C[C@H]1CN(C2COC2)CCN1c1ccc(Nc2cc(-c3ccnc(N4CCn5c6c(c(C(F)(F)F)c5C4=O)CC(C)(C)C6)c3CO)cn(C)c2=O)nc1")
"0.00052 µM"
>>> recorded_value("C=CC(=O)NC1CCN(c2ccc(C(N)=O)c(-c3ccc(Oc4ccccc4)cc3)n2)CC1")
"0.5 to 1 µM"
>>> recorded_value("Nc1ncnc2c1c(-c1cccc(CO)c1)nn2C1Cc2ccccc2C1")
"0.84 µM"
>>> recorded_value("C=CC(=O)N1CC2CC1C(n1nc(-c3ccc(Oc4ccccc4)cc3)c3c(N)ncc(-c4cnn(C)c4)c31)C2 (centres unmarked)")
"0.0073 µM"
>>> recorded_value("C[C@@H]1CN(c2nc(-c3cnn(C)c3)cn3nccc23)CC[C@@H]1CNC(=O)c1cn(C(C)(C)C)nn1 (single isomer, unassigned)")
"0.01 to 1 µM"
>>> recorded_value("C=CC(=O)N1CCC(C2CCNn3c2nc(-c2ccc(Oc4ccc(OC)cc4)cc2)c3C(N)=O)CC1 (centres unmarked)")
"0.0426 µM"
>>> recorded_value("C=CC(=O)N1CCC[C@@H](n2c(Cl)c(-c3ccc(Oc4ccccc4F)cc3)c3c(N)n[nH]c(=O)c32)C1")
"1 to 100 µM"
>>> recorded_value("Cc1cc(-c2ccnc(Nc3conc3C)n2)ccc1CNC(=O)c1cnc(C(C)(C)C)s1")
"< 0.01 µM"

---

Listing of IC50 toward BTK (Homo sapiens), each taken from a published source.
OBSERVED_PROPERTY: IC50

>>> recorded_value("C=CC(=O)N1CC(Nc2cncc(-c3cnc(Oc4cccc(OC(F)(F)F)c4)nc3)c2)C1")
"34.5 nM"
>>> recorded_value("C=CC(=O)Nc1cccc(Oc2ccnc3cc(-c4ccccc4)oc23)c1")
"300 to 3000 nM"
>>> recorded_value("C=CC(=O)N[C@H]1CC[C@@H](Nc2nc(Nc3cnn(C4CCCC4)c3)nc3ccsc23)CC1")
"≤ 50 nM"
>>> recorded_value("O=C(CNc1cc(C(F)(F)F)ccc1F)N[C@@H]1CCCN(c2ncnc3[nH]ccc23)C1")
"1000 to 10000 nM"
>>> recorded_value("C=CC(=O)N1C[C@H]2[C@@H]([C@H]1c1nc(-c3ccc(C(=O)Nc4ccccn4)cc3)c3c(N)nccn13)C2(C)C")
"21 nM"
>>> recorded_value("CCn1cc(Nc2nccc(-c3ccc(CNC(=O)c4cnn(C(C)(C)C)c4)c(C)c3)n2)cn1")
"< 10 nM"
>>> recorded_value("C=CC(=O)N1CCC(C2CCn3c2nc(-c2ccc(Oc4ccccc4)cc2)c3C(N)=O)CC1 (stereo not shown)")
"8.4 nM"
>>> recorded_value("C=CC(=O)N1CCCC(n2nc(-c3ccc(Oc4ccccc4)cc3)c(C(N)=O)c2NCCN2CCN(C)CC2)C1 (stereo not shown)")
"< 100 nM"
>>> recorded_value("O=C(c1ccccc1F)c1c[nH]c2nccc(-c3cc(F)cc(F)c3)c12")
"≤ 10000 nM"
>>> recorded_value("c1ccc(Oc2ccc3nc(Nc4cnn(C5CCOCC5)c4)sc3n2)cc1")
"> 10000 nM"
>>> recorded_value("CC#CC(=O)N1CC2C[C@H]1C(c1nc(-c3ccc(C(=O)Nc4ccccn4)cc3)c3c(N)nccn13)N2 (stereo partly shown)")
"672 nM"
>>> recorded_value("C=CC(=O)N1C[C@@H]2C[C@H]1[C@@H](n1nc(-c3ccc(C(=O)Nc4ccccn4)cc3OC)c3c(N)ncnc31)C2")
"1 nM"
>>> recorded_value("CC#CC(=O)N[C@H]1CC[C@@H](n2nc(-c3ccc(Oc4cc(F)cc(OCc5cnc(C)nc5)c4)cc3)c3c(N)ncnc32)CC1")
"9 nM"
>>> recorded_value("CCCS(=O)(=O)Nc1ccc(F)c(C(=O)c2c[nH]c3ncc(-c4ccc(NC(C)=O)cc4)cc23)c1F")
"≤ 10000 nM"
>>> recorded_value("COc1ncc(-c2cnc3[nH]cc(C(=O)c4c(F)ccc(NS(C)(=O)=O)c4F)c3c2)cn1")
"≤ 10000 nM"
>>> recorded_value("CC#CC(=O)N1CCC[C@H]1c1nc(-c2ccc(Oc3ccccn3)cc2)c2c(N)nccn12")
"577 nM"
>>> recorded_value("[2H]C([2H])=C([2H])C(=O)N(c1cccc(Nc2ncc3cc(-c4c(C)cc[nH]c4=O)ccc3n2)c1)C([2H])([2H])[2H]")
"< 100 nM"
>>> recorded_value("C=CC(=O)N1CC[C@@H](Nc2nc(Nc3cnn(C(C)C)c3)nc3ccsc23)C1")
"≤ 50 nM"
>>> recorded_value("CN(c1ncnc2[nH]ccc12)[C@@H]1CCCN(C(=O)CNc2cc(F)cc(Cl)c2)C1")
"100 to 999 nM"
>>> recorded_value("Nc1cccc(-c2ccnc3[nH]cc(C(=O)c4ccccc4F)c23)c1")
"≤ 10000 nM"
>>> recorded_value("C=CC(=O)N1CCN(c2ccc(C(N)=O)c(-c3ccc(Oc4ccccn4)cc3)n2)CC1")
"< 500 nM"
>>> recorded_value("O=C(CNC(c1ccccc1)c1ccccc1)N[C@@H]1CCCN(c2ncnc3[nH]ccc23)C1")
"1000 to 10000 nM"
